Reference source for all entries: patent US20150329558A1

- ASSAY_METHOD_TEXT: Microsomal stability assay, human
- Format: in vitro ADME
- DETAILS: metabolic stability, human liver microsomes 0.5 mg/mL, substrate 3 uM
Classify: TRUE when MS Human THalf is strictly less than 200 min; FALSE when MS Human THalf is not.

As a guide, the following entries are already answered.
# COMPOUND, CLASS_LABEL
data = [
    ("O=c1c2cc(-c3ccc(OC(F)(F)F)cc3)ccc2nnn1C1CCN(CC(F)(F)F)CC1 [II-71]", "TRUE"),
    ("Cc1cc(C)n(CC2(Cn3nnc4ccc(-c5ccc(OC(F)(F)F)cc5)cc4c3=O)CC2)n1 [II-64]", "TRUE"),
    ("O=c1c2cc(-c3cnc(N4CCCCC4)nc3)ccc2nnn1CCOc1ncccn1 [Compound V-12]", "TRUE"),
    ("O=C1c2cc(-c3ccc(OC(F)(F)F)cc3)ccc2CCN1Cc1ncccn1 [IX-1]", "FALSE"),
    ("O=c1c2cc(-c3ccc(OC(F)(F)F)cc3)ccc2cnn1Cc1ncccn1 [III-5]", "TRUE"),
]

Problem: Please determine if O=C1c2cc(-c3ccc(C(F)(F)F)cc3)ccc2OCN1Cc1ccccn1 [VIII-1] is below 200 min in terms of MS Human THalf.
Result: TRUE

Problem: Given CC(Cn1ncc2ccc(-c3ccc(OC(F)(F)F)cc3)cc2c1=O)n1cccn1 (stereo not drawn) [III-38] , is recorded MS Human THalf strictly lower than 200 min?
Result: TRUE

Problem: Take the compound O=c1c2cc(-c3ccc(OC(F)(F)F)cc3)ccc2nnn1C1CCNCC1 [II-38] and say whether its MS Human THalf is less than 200 min.
Result: FALSE

Problem: Could you please tell me whether MS Human THalf recorded for Cc1noc(Cn2cnc3ccc(-c4ccc(OC(F)(F)F)cc4)cc3c2=O)n1 [IV-6] is less than 200 min?
Result: FALSE

Problem: Given the entry COC(=O)C1(Cn2nnc3ccc(-c4ccc(OC(F)(F)F)cc4)cc3c2=O)CC1 [II-55] , would its reported MS Human THalf be below 200 min?
Result: TRUE

Problem: Please let me know if O=c1c2cc(-c3ccc(OC(F)(F)F)cc3)ccc2nnn1CC1(CN2CCCC2)CC1 [II-63] shows MS Human THalf below 200 min.
Result: TRUE
